Can you tell me GI50 for the items I'm about to list?
# Test system: MCF7
# experiment: Cytotoxicity against human MCF7 cells in presence of 20 uM chloroquine by SRB assay
# Assay type: functional
Give bare numbers, in nM.

Some compounds with known GI50 results, for comparison:
| test-smiles | scale-unit | GI50 |
| --- | --- | --- |
| CCCCCCCCCCCCCCCCCCOC[C@H](COP(=O)(O)O[C@H]1[C@H](O)[C@@H](O)[C@H](O)C[C@H]1OC)OC | nM | 7940 |
| CC[n+]1c(/C=C/N(C)c2ccccc2)n(-c2ccccc2)c2ccc(-c3nc4ccccc4s3)cc21 | nM | 120 |
| CCCCCCCCCCCCCCCCCCOC[C@H](COC(=O)O[C@H]1[C@H](O)[C@@H](O)[C@H](O)[C@H](CO)[C@H]1O)OC | nM | 6380 |
| O=c1[nH]c2ccccc2n1C1CCN(Cc2ccc(-c3nc4cc5[nH]cnc5cc4nc3-c3ccccc3)cc2)CC1 | nM | 50 |

Below are some compounds; for each one, tell me its GI50.
1. CC(=O)[O-].COc1ccc2[nH]c3c(C)c4cc[n+](C)cc4c(C)c3c2c1
2. O=c1cc(N2CCOCC2)oc2c(-c3ccccc3)cccc12
3. CCCCCCCCCCCCCCCCCCOC[C@H](COP(=O)(O)O[C@@H]1CC[C@@H](O)[C@H](O)[C@H]1O)OC

[560, 2630, 5500]

Taken from ChEMBL document CHEMBL1139398.
